- TESTED_ON: hNK1 (Homo sapiens, UniProt P25103)
- Construct: expressed in transfected cells; host or cells: CHO
- Sequence (P25103 whole entry): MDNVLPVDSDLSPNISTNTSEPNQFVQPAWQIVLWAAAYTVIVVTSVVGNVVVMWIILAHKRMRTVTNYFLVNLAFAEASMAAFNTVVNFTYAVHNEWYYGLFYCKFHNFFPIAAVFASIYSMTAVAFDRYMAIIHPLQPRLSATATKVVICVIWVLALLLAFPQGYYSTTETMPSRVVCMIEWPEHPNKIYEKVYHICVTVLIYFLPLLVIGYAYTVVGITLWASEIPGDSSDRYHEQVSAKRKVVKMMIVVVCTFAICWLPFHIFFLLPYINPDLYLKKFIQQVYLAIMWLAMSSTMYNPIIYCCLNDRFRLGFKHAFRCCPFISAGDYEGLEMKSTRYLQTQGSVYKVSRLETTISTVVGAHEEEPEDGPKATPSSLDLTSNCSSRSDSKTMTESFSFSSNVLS
- MEASUREMENT_NOTES: hNK1/CHO cell membrane radioligand binding assay ([3H]SP)
- RUN_PARAMETERS: ratio human/rat NK1
Non-standard residues stand in square brackets, D forms with d. Residues, ends and D or L forms follow the SMILES beside them. *: point of attachment. NH(3,5-(CF3)2-benzyl) = FC(F)(F)c1cc(CN*)cc(C(F)(F)F)c1; NMePhe(4-F) = CN[C@@H](Cc1ccc(F)cc1)C(=O)O; NMeF = CN[C@@H](Cc1ccccc1)C(=O)O
// reported Ki^hNK1/Ki^rNK1 per item

MOLECULE: CC(C)C[C@H](NC(=O)[C@@H]1CCCN1C(=O)[C@@H](CO)NC(=O)[C@H](Cc1ccccc1)NC(=O)CNC(=O)[C@@H](C)NC(=O)[C@@H](N)Cc1ccc(O)cc1)C(=O)N[C@@H](Cc1c[nH]c2ccccc12)C(=O)NCc1cc(C(F)(F)F)cc(C(F)(F)F)c1 [AKG101]
Ki^hNK1/Ki^rNK1: 1/39

MOLECULE: CC(C)C[C@H](NC(=O)[C@@H]1CCCN1C(=O)[C@H](CO)NC(=O)[C@H](Cc1ccccc1)N(C)C(=O)CNC(=O)[C@@H](C)NC(=O)[C@@H](N)Cc1ccc(O)cc1)C(=O)N[C@@H](Cc1c[nH]c2ccccc12)C(=O)NCc1cc(C(F)(F)F)cc(C(F)(F)F)c1 [AKG126] (H-Y[dA]G[NMeF]SPLW-{NH(3,5-(CF3)2-benzyl)})
Ki^hNK1/Ki^rNK1: 1/37

MOLECULE: CC(C)C[C@H](NC(=O)[C@@H]1CCCN1C(=O)[C@H](CO)NC(=O)[C@H](Cc1ccc(F)cc1)N(C)C(=O)CNC(=O)[C@@H](C)NC(=O)[C@@H](N)Cc1ccc(O)cc1)C(=O)N[C@@H](Cc1c[nH]c2ccccc12)C(=O)NCc1cc(C(F)(F)F)cc(C(F)(F)F)c1 [AKG134] (H-Y[dA]G[NMePhe(4-F)]SPLW-{NH(3,5-(CF3)2-benzyl)})
Ki^hNK1/Ki^rNK1: 1/6

* * *

- TESTED_ON: MOR
- MEASUREMENT_NOTES: Radioligand binding assay at μ opioid receptor
- RUN_PARAMETERS: log IC50 ± error
- Protocol: Binding affinities of these ligands were measured on radioligand binding assays. […] ([43]).

SMILES_RECORD: CC(C)C[C@H](NC(=O)[C@@H]1CCCN1C(=O)[C@H](Cc1ccc(F)cc1)NC(=O)CNC(=O)[C@@H](C)NC(=O)[C@@H](N)Cc1ccc(O)cc1)C(=O)N[C@@H](Cc1c[nH]c2ccccc12)C(=O)NCc1cc(C(F)(F)F)cc(C(F)(F)F)c1
Log[IC50±] (μ): −8.08

SMILES_RECORD: CC(C)C[C@H](NC(=O)[C@@H]1CCCN1C(=O)CCNC(=O)[C@H](Cc1ccccc1)N(C)C(=O)CNC(=O)[C@@H](C)NC(=O)[C@@H](N)Cc1ccc(O)cc1)C(=O)N[C@@H](Cc1c[nH]c2ccccc12)C(=O)NCc1cc(C(F)(F)F)cc(C(F)(F)F)c1
Log[IC50±] (μ): −7.76

* * *

- TESTED_ON: rNK1 (Rattus norvegicus, UniProt P14600)
- Sequence (P14600 whole entry): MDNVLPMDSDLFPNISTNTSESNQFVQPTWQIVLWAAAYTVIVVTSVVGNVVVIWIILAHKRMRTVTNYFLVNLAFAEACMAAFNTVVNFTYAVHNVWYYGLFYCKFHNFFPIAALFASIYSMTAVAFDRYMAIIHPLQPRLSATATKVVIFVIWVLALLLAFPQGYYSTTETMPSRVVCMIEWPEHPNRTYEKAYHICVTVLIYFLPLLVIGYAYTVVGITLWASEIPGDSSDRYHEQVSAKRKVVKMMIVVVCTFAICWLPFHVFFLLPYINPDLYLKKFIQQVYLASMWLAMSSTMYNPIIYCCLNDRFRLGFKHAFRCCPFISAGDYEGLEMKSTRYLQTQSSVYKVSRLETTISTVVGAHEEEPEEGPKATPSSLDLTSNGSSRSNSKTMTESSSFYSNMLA
- MEASUREMENT_NOTES: Radioligand binding assay at rat NK1 receptor
- RUN_PARAMETERS: Ki^rNK1 (nM)
- Procedure: Binding affinities of these ligands were measured on radioligand binding assays. […] ([43]).
Non-standard residues stand in square brackets, D forms with d. Residues, ends and D or L forms follow the SMILES beside them. *: point of attachment. NH(3,5-(CF3)2-benzyl) = FC(F)(F)c1cc(CN*)cc(C(F)(F)F)c1; NMePhe(4-F) = CN[C@@H](Cc1ccc(F)cc1)C(=O)O; Phe(4-F) = N[C@@H](Cc1ccc(F)cc1)C(=O)O; Dmt = Cc1cc(O)cc(C)c1C[C@H](N)C(=O)O; NMeF = CN[C@@H](Cc1ccccc1)C(=O)O
// reported Ki per item

COMPOUND: Cc1cc(O)cc(C)c1C[C@H](N)C(=O)N[C@H](C)C(=O)NCC(=O)N(C)[C@@H](Cc1ccc(F)cc1)C(=O)N[C@@H](CO)C(=O)N1CCC[C@H]1C(=O)N[C@@H](CC(C)C)C(=O)N[C@@H](Cc1c[nH]c2ccccc12)C(=O)NCc1cc(C(F)(F)F)cc(C(F)(F)F)c1 [AKG135] (H-[Dmt][dA]G[NMePhe(4-F)]SPLW-{NH(3,5-(CF3)2-benzyl)}; N-terminus assumed)
Ki (nM): 51.7

COMPOUND: Cc1cc(O)cc(C)c1C[C@H](N)C(=O)N[C@H](C)C(=O)NCC(=O)N(C)[C@@H](Cc1ccccc1)C(=O)N[C@@H](CO)C(=O)N1CCC[C@H]1C(=O)N[C@@H](CC(C)C)C(=O)N[C@@H](Cc1c[nH]c2ccccc12)C(=O)NCc1cc(C(F)(F)F)cc(C(F)(F)F)c1 [AKG132] (H-[Dmt][dA]G[NMeF]SPLW-{NH(3,5-(CF3)2-benzyl)})
Ki (nM): 36

COMPOUND: Cc1cc(O)cc(C)c1C[C@H](N)C(=O)N[C@H](C)C(=O)NCC(=O)N[C@@H](Cc1ccc(F)cc1)C(=O)N1CCC[C@H]1C(=O)N[C@@H](CC(C)C)C(=O)N[C@@H](Cc1c[nH]c2ccccc12)C(=O)NCc1cc(C(F)(F)F)cc(C(F)(F)F)c1 [AKG127]
Ki (nM): 29.4

COMPOUND: CC(C)C[C@H](NC(=O)[C@@H]1CCCN1C(=O)CNC(=O)[C@H](Cc1ccc(F)cc1)NC(=O)CNC(=O)[C@@H](C)NC(=O)[C@@H](N)Cc1ccc(O)cc1)C(=O)N[C@@H](Cc1c[nH]c2ccccc12)C(=O)NCc1cc(C(F)(F)F)cc(C(F)(F)F)c1 [AKG130] (H-Y[dA]G[Phe(4-F)]GPLW-{NH(3,5-(CF3)2-benzyl)})
Ki (nM): 72

* * *

- TESTED_ON: MOR
- MEASUREMENT_NOTES: Radioligand binding assay at μ opioid receptor
- RUN_PARAMETERS: log IC50 ± error
Non-standard residues stand in square brackets, D forms with d. Residues, ends and D or L forms follow the SMILES beside them. *: point of attachment. NH(3,5-(CF3)2-benzyl) = FC(F)(F)c1cc(CN*)cc(C(F)(F)F)c1
// reported Log[IC50±] (μ) per item
MEASURE_NAME: Log[IC50±] (μ)

COMPOUND: CC(C)C[C@H](NC(=O)[C@@H]1CCCN1C(=O)CCCNC(=O)[C@H](Cc1ccccc1)N(C)C(=O)CNC(=O)[C@@H](C)NC(=O)[C@@H](N)Cc1ccc(O)cc1)C(=O)N[C@@H](Cc1c[nH]c2ccccc12)C(=O)NCc1cc(C(F)(F)F)cc(C(F)(F)F)c1
MEASURE_NAME: Log[IC50±] (μ)
RESULT_VALUE: −7.73
//
COMPOUND: CC(C)C[C@H](NC(=O)[C@@H]1CCCN1C(=O)[C@H](Cc1ccccc1)NC(=O)CNC(=O)[C@@H](C)NC(=O)[C@@H](N)Cc1ccc(O)cc1)C(=O)N[C@@H](Cc1c[nH]c2ccccc12)C(=O)NCc1cc(C(F)(F)F)cc(C(F)(F)F)c1 [TY012, reference compound]
MEASURE_NAME: Log[IC50±] (μ)
RESULT_VALUE: −7.7
//
COMPOUND: Cc1cc(O)cc(C)c1C[C@H](N)C(=O)N[C@H](C)C(=O)NCC(=O)N[C@@H](Cc1ccc(Br)cc1)C(=O)N1CCC[C@H]1C(=O)N[C@@H](CC(C)C)C(=O)N[C@@H](Cc1c[nH]c2ccccc12)C(=O)NCc1cc(C(F)(F)F)cc(C(F)(F)F)c1
MEASURE_NAME: Log[IC50±] (μ)
RESULT_VALUE: −7.96
//
COMPOUND: CC(C)C[C@H](NC(=O)[C@@H]1CCCN1C(=O)[C@H](Cc1ccc(O)cc1)NC(=O)CNC(=O)[C@H](Cc1ccccc1)NC(=O)[C@@H](C)NC(=O)[C@@H](N)Cc1ccc(O)cc1)C(=O)N[C@@H](Cc1c[nH]c2ccccc12)C(=O)NCc1cc(C(F)(F)F)cc(C(F)(F)F)c1 [AKG114] (H-Y[dA]FGYPLW-{NH(3,5-(CF3)2-benzyl)})
MEASURE_NAME: Log[IC50±] (μ)
RESULT_VALUE: −8.02

* * *

- TESTED_ON: DOR (Homo sapiens, UniProt P41143)
- Sequence (P41143 whole entry): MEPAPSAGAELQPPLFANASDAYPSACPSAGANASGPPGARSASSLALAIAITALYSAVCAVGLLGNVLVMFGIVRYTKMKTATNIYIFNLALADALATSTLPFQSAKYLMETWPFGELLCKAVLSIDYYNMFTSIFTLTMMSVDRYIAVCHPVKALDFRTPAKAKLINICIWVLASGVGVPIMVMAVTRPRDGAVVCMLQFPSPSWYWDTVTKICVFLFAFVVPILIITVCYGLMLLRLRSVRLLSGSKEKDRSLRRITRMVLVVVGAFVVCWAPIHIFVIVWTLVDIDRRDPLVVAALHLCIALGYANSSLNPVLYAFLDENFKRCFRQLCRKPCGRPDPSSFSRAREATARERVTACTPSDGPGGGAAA
Non-standard residues stand in square brackets, D forms with d. Residues, ends and D or L forms follow the SMILES beside them. *: point of attachment. NH(3,5-(CF3)2-benzyl) = FC(F)(F)c1cc(CN*)cc(C(F)(F)F)c1; NMePhe(4-F) = CN[C@@H](Cc1ccc(F)cc1)C(=O)O; Dmt = Cc1cc(O)cc(C)c1C[C@H](N)C(=O)O; NMeF = CN[C@@H](Cc1ccccc1)C(=O)O
// reported IC50 per item
MEASURE_NAME: IC50

COMPOUND: Cc1cc(O)cc(C)c1C[C@H](N)C(=O)N[C@H](C)C(=O)NCC(=O)N[C@@H](Cc1ccccc1)C(=O)N1CCC[C@H]1C(=O)N[C@@H](CC(C)C)C(=O)N[C@@H](Cc1c[nH]c2ccccc12)C(=O)NCc1cc(C(F)(F)F)cc(C(F)(F)F)c1 [AKG116]
MEASURE_NAME: IC50
RESULT_VALUE: 2.19 nM

COMPOUND: CC(C)C[C@H](NC(=O)[C@@H]1CCCN1C(=O)[C@H](CCC(N)=O)NC(=O)[C@H](Cc1ccc(F)cc1)NC(=O)CNC(=O)[C@@H](C)NC(=O)[C@@H](N)Cc1ccc(O)cc1)C(=O)N[C@@H](Cc1c[nH]c2ccccc12)C(=O)NCc1cc(C(F)(F)F)cc(C(F)(F)F)c1 [AKG142]
MEASURE_NAME: IC50
RESULT_VALUE: 3.39 nM

COMPOUND: CC(C)C[C@H](NC(=O)[C@@H]1CCCN1C(=O)[C@@H](CCC(N)=O)NC(=O)[C@H](Cc1ccccc1)NC(=O)CNC(=O)[C@@H](C)NC(=O)[C@@H](N)Cc1ccc(O)cc1)C(=O)N[C@@H](Cc1c[nH]c2ccccc12)C(=O)NCc1cc(C(F)(F)F)cc(C(F)(F)F)c1 [AKG103]
MEASURE_NAME: IC50
RESULT_VALUE: 155 nM

COMPOUND: CC(C)C[C@H](NC(=O)[C@@H]1CCCN1C(=O)CNC(=O)[C@H](Cc1ccc(F)cc1)N(C)C(=O)CNC(=O)[C@@H](C)NC(=O)[C@@H](N)Cc1ccc(O)cc1)C(=O)N[C@@H](Cc1c[nH]c2ccccc12)C(=O)NCc1cc(C(F)(F)F)cc(C(F)(F)F)c1 [AKG131] (H-Y[dA]G[NMePhe(4-F)]GPLW-{NH(3,5-(CF3)2-benzyl)})
MEASURE_NAME: IC50
RESULT_VALUE: 38 nM

COMPOUND: CC(C)C[C@H](NC(=O)[C@@H]1CCCN1C(=O)Cc1ccc(NC(=O)[C@H](Cc2ccccc2)N(C)C(=O)CNC(=O)[C@@H](C)NC(=O)[C@@H](N)Cc2ccc(O)cc2)cc1)C(=O)N[C@@H](Cc1c[nH]c2ccccc12)C(=O)NCc1cc(C(F)(F)F)cc(C(F)(F)F)c1 [AKG177]
MEASURE_NAME: IC50
RESULT_VALUE: 148 nM

COMPOUND: Cc1cc(O)cc(C)c1C[C@H](N)C(=O)N[C@H](C)C(=O)NCC(=O)N(C)[C@@H](Cc1ccc(F)cc1)C(=O)N[C@@H](CCC(N)=O)C(=O)N1CCC[C@H]1C(=O)N[C@@H](CC(C)C)C(=O)N[C@@H](Cc1c[nH]c2ccccc12)C(=O)NCc1cc(C(F)(F)F)cc(C(F)(F)F)c1 [AKG144]
MEASURE_NAME: IC50
RESULT_VALUE: 0.437 nM

COMPOUND: Cc1cc(O)cc(C)c1C[C@H](N)C(=O)N[C@H](C)C(=O)NCC(=O)N(C)[C@@H](Cc1ccccc1)C(=O)N[C@@H](CO)C(=O)N1CCC[C@H]1C(=O)N[C@@H](CC(C)C)C(=O)N[C@@H](Cc1c[nH]c2ccccc12)C(=O)NCc1cc(C(F)(F)F)cc(C(F)(F)F)c1 [AKG132] (H-[Dmt][dA]G[NMeF]SPLW-{NH(3,5-(CF3)2-benzyl)})
MEASURE_NAME: IC50
RESULT_VALUE: 5.25 nM
